# System under test: T1, Human Nectin-4 (residues Gly32-Ser349) with C-terminal FLAG tag, biotinylated (human, UniProt Q96NY8 32-349, randomly biotinylated with EZ-Link Sulfo-NHS-LC-LC-Biotin)
# T1 construct: range 32-349; Captured through biotin on a streptavidin CM5 chip in the SPR assay; also called PVRL4; not shown: C-terminal FLAG tag
# T1 sequence (looked up): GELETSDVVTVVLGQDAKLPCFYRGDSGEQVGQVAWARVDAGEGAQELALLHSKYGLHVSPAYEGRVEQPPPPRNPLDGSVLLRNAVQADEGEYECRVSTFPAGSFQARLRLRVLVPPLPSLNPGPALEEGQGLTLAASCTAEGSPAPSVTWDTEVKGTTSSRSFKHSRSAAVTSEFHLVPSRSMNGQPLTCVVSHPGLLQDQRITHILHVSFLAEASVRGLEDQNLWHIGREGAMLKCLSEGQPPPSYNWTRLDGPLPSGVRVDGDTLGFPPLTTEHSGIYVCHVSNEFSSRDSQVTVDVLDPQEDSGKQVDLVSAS
# Experiment description: SPR (Biacore), biotinylated human Nectin-4 on streptavidin chip
*1 amine or outer side, *2 acyl side, *3 side chain or, on linkers, in order; H or OH if unused. Bridges are numbered along the chain shown (N, C = ends). Where no end group is shown, it is not given here. [ ]: non-standard residue; d: D form. TATA = O=C(CC[*:1])N1CN(C(=O)CC[*:2])CN(C(=O)CC[*:3])C1; 1Nal = N[C@@H](Cc1cccc2ccccc12)C(=O)O; Hyp = O=C(O)[C@@H]1C[C@@H](O)CN1; dCya = N[C@H](CS(=O)(=O)O)C(=O)O; hArg = N=C(N)NCCCC[C@H](N)C(=O)O; Agb = N=C(N)NCC[C@H](N)C(=O)O; βAla = NCCC(=O)O; Sar = CNCC(=O)O
Reported Kd by item:
Provide only the numeric value, understood in nM.

INSERT INTO measurements (binder, property_name, number) VALUES
  ('Ac-CP[1Nal][dD]CL[hArg]DWSTPIWC (linker 1-5-15 via TATA, Bicyclic peptide cyclised with TATA) [BCY8211]', 'Kd', 7.32),
  ('Ac-CP[1Nal][dD]CM[hArg]NWSTPIWC (linker 1-5-15 via TATA, Bicyclic peptide cyclised with TATA) [BCY8030]', 'Kd', 1.71),
  ('{Ac-βAla}-[Sar][Sar][Sar][Sar][Sar][Sar][Sar][Sar][Sar][Sar]CP[1Nal][dCya]CM[hArg]DWSTP[Hyp]WC (linker 11-15-25 via TATA, Bicyclic peptide cyclised with TATA) [BCY8276]', 'Kd', 0.86),
  ('{Ac-βAla}-[Sar][Sar][Sar][Sar][Sar]CP[1Nal][dD]CM[hArg]DWSTP[Hyp]WC (linker 6-10-20 via TATA, Bicyclic peptide cyclised with TATA) [BCY8122]', 'Kd', 0.89);

Moving on to another binder below.
Tell me its Kd given Ac-CP[1Nal][dR]CM[Agb]DWSTP[Hyp]WC (linker 1-5-15 via TATA, Bicyclic peptide cyclised with TATA) [BCY8192] as the entry. 1.81
